For each record, write down the corresponding glycan array binding signal (z-score).
# target_or_system: Fuc(a1-2)[Gal(a1-3)]Gal(b1-4)GlcNAc(b1-2)Man(a1-3)[Fuc(a1-2)[Gal(a1-3)]Gal(b1-4)GlcNAc(b1-2)Man(a1-6)]Man(b1-4)GlcNAc(b1-4)GlcNAc
# measurement_description: glycan array binding signal (z-score within array); higher = stronger binding
# stated_conditions: glycan notation: IUPAC condensed, linker removed
This is one part of a sample in which the strongest signals are shown more often than they occur.
Respond numerically, and do not add a unit to the figure.

The reported value for Strep tagII-anxA1 (Homo sapiens), P04083 (protein) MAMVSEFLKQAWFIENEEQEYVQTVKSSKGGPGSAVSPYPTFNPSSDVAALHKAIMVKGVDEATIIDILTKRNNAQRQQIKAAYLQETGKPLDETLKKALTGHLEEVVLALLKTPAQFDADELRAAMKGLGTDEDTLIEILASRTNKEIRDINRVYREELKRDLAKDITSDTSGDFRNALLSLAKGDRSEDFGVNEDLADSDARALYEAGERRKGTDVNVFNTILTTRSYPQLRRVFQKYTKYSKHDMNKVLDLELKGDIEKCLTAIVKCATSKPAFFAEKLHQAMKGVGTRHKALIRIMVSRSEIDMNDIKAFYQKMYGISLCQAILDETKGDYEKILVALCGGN in terms of glycan array binding signal (z-score) is 1.69

The reported value for CML1 (Coprinopsis cinerea) (protein) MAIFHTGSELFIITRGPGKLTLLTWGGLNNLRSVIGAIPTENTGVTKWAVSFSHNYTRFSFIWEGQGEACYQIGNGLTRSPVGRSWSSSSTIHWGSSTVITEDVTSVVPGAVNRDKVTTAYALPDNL in terms of glycan array binding signal (z-score) is -0.242

The reported value for Gal 8 (Homo sapiens), O00214_1 (protein) MMLSLNNLQNIIYNPVIPFVGTIPDQLDPGTLIVIRGHVPSDADRFQVDLQNGSSMKPRADVAFHFNPRFKRAGCIVCNTLINEKWGREEITYDTPFKREKSFEIVIMVLKDKFQVAVNGKHTLLYGHRIGPEKIDTLGIYGKVNIHSIGFSFSSDLQSTQASSLELTEISRENVPKSGTPQLRLPFAARLNTPMGPGRTVVVKGEVNANAKSFNVDLLAGKSKDIALHLNPRLNIKAFVRNSFLQESWGEEERNITSFPFSPGMYFEMIIYCDVREFKVAVNGVHSLEYKHRFKELSSIDTLEINGDIHLLEVRSW in terms of glycan array binding signal (z-score) is 2.33

The reported value for Gal 3 (Homo sapiens), P17931 (protein) MADNFSLHDALSGSGNPNPQGWPGAWGNQPAGAGGYPGASYPGAYPGQAPPGAYPGQAPPGAYHGAPGAYPGAPAPGVYPGPPSGPGAYPSSGQPSAPGAYPATGPYGAPAGPLIVPYNLPLPGGVVPRMLITILGTVKPNANILDFQRGNDVAFHFNPRFNENNRRVIVCNTKLDNNWGREERQSVFPFESGKPFKIQVLVEPDHFKVAVNDAHLLQYNHRVKKLNEISKLGISGDIDLTSASYTMI in terms of glycan array binding signal (z-score) is 5.09

The reported value for XTP3-B-MRH2 (Homo sapiens), Q96DZ1 (protein) EFLSGSYCFRGGVGWWKYEFCYGKHVHQYHEDKDSGKTSVVVGTWNQEEHIEWAKKNTARAYHLQDDGTQTVRMVSHFYGNGDICDITDKPRQVTVKLKCKESDSPHAVTVYMLEPHSCQYILGVESPVICKILDTA in terms of glycan array binding signal (z-score) is 2.95

The reported value for Tap1 (Sordaria macrospora), Q50IV4 (protein) MSHHHHHHHHYTLHLRLINDTSDTLTLVEQTSWWGKNTIWSQVRSTGVHVLSMAASGSSGMLRFQTSKGDFFAVAVGVHNYKRWCDVLVDTADEAPLTKLHPKYYDDKDAKYQALWAQASEFEAKSKSGKTVRIKFYQADGNVLRATVEYL in terms of glycan array binding signal (z-score) is -0.244
